- System: PIK3CB
- experimental.context: concentration: 1 μM, replicates: in singlicate; n = 1;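 note: KINOMEscan kinase panel screen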
assay.readout: %Inh (%)
The response must be a number in % with no trailing unit.

Measured %Inh of "COc1cccc(C2=C(Nc3cccc(O)c3)C(=O)NC2=O)c1" : 0

Measured %Inh of "CN(C)CCOc1ccc(-c2cc(-c3ccc(Cl)c(O)c3)c(-c3ccncc3)[nH]2)cc1.Cl.Cl" : 54

Record "CCn1c(-c2nonc2N)nc2c(-c3ccccc3)ncc(OCCCN)c21.O=C(O)C(F)(F)F.O=C(O)C(F)(F)F" . Reported %Inh: 0

Just so you know, measured %Inh for "CN(c1ccc(F)c(NC(=O)c2cccc(OC(C)(C)C#N)c2Cl)c1)c1ccc2nc(NC(=O)C3CC3)sc2n1" came out at 9

The reported %Inh of the molecule "Fc1cc(Cl)ccc1Nc1ccnc2cc(-c3ccc(CN4CCOCC4)o3)ccc12" was 0

Measured %Inh of "CC(C)c1nc(-c2ccc(F)c(NS(=O)(=O)c3c(F)cccc3F)c2)c(-c2ccnc(Nc3ccc(N4CCOCC4)nc3)n2)s1" : 0

Documented %Inh of "COc1ccc(C2=C(Nc3cccc(O)c3)C(=O)NC2=O)cc1" : 0

Looking up "Cc1ccccc1CC(=O)N1CCc2cc(-c3cn(C)c4ncnc(N)c34)ccc21" , I found its %Inh recorded as 0

Record "Cc1ccc(NC(=O)c2ccnc(N3CCCCC3)c2)cc1-c1ccc(C(=O)NCC2CC2)cc1" . Reported %Inh: 0

%Inh reported for this molecule "COc1ccc(C)c(Nc2ccnc(Nc3ccc(-c4cnc[nH]4)cc3)n2)c1.Cl" : 0

Kindly note the recorded %Inh for "O=C(O)C(F)(F)F.O=c1[nH]ccc2nc(N[C@@H]3CCNC3)nc(Nc3cc(Cl)cc(Cl)c3)c12" , which is 25

Lab book: %Inh of "Cn1cc(-c2ccc3c(c2)CCN3C(=O)Cc2cc(F)cc(C(F)(F)F)c2)c2c(N)ncnc21" noted as 8

Measured %Inh of "COc1cc(Nc2nccc(N3CCC(NS(=O)(=O)c4ccc(NC(C)=O)cc4)CC3)n2)cc(OC)c1OC" : 0

Form: molecule = COc1cc(Nc2nccc(N3CCC(NC(=O)Nc4ccc5c(c4)OCO5)C3)n2)cc(OC)c1OC (stereo not shown) ; %Inh = 0

Just so you know, measured %Inh for "Nc1ncc(-c2ccc3nccc(-c4ccncc4)c3c2)cc1S(=O)(=O)N1CCCCC1" came out at 96.9

The molecule listed as "Cc1cc(-c2c(-c3ccc(F)cc3)ncn2CCCN2CCOCC2)nc(N)n1" has a reported %Inh of 0

---

- System: AKT3
- experimental.context: concentration: 1 μM, replicates: in singlicate; n = 1
For each entry below, report its %Inh value.
Answer format reminder: number followed by unit.

The recorded %Inh for "Cc1nn2c(=O)cc(N3CCO[C@H](C)C3)nc2n1Cc1cccc(Cl)c1Cl" is 4%

For "COc1ccc(C2=C(Nc3cccc(O)c3)C(=O)NC2=O)cc1" the compound record lists %Inh as 0%

Measured %Inh, "COc1ccc(NC(=O)c2ccoc2)cc1-c1ccc(C(=O)NCC2CC2)cc1" : 0%

Just so you know, measured %Inh for "COC(=O)Nc1nc2ccc(Oc3ccc(NC(=O)Nc4cc(C(F)(F)F)ccc4F)cc3)cc2[nH]1.Cl" came out at 0%

Consider "Nc1cccc(-c2ccc3c(N)n[nH]c3c2)c1" . Its measured %Inh is 23%

// %Inh value for "CN(c1ccc2c(c1)nc(NCc1ccccc1)n2C)c1ccnc(Nc2ccc(CS(C)(=O)=O)cc2)n1.Cl" : 1%

"Nc1ncc(-c2ccc3nccc(-c4ccncc4)c3c2)cc1S(=O)(=O)N1CCCCC1" yielded %Inh of 0%

Looking up "Cc1cc(-c2c(-c3ccc(F)cc3)ncn2CCCN2CCOCC2)nc(N)n1" , I see its %Inh listed as 23%

// recorded %Inh for "Cn1cc(-c2ccc3c(c2)CCN3C(=O)Cc2cc(F)cc(F)c2F)c2c(N)ncnc21" : 0%

Value of measured %Inh for the entry "Cc1ccc(NC(=O)c2cccc(N3CCCCC3)c2)cc1-c1ccc(C(=O)NCC2CC2)cc1" : 2%

// %Inh lookup, compound = "Cc1ccc(C)c(NC(=O)Nc2ccc(C)c(-c3ccc(C(=O)Nc4ccncc4)cc3)c2)c1" , result: 0%

%Inh in this record for "Cc1ccccc1CC(=O)N1CCc2cc(-c3cn(C)c4ncnc(N)c34)ccc21" : 0%

The measured %Inh associated with "COc1ccc(C)c(Nc2ccnc(Nc3ccc(-c4cnc[nH]4)cc3)n2)c1.Cl" reads 8%

Short answer for "CN(C)c1ncnc2nc[nH]c12" : %Inh was 0%

Value of %Inh reported for the compound "N#Cc1cnc2cc(-c3cnc(CNCCN4CCOCC4)s3)ccc2c1Nc1ccc(Oc2ccccc2)cc1" is 0%

Consider "Cc1ccc(O)cc1Nc1ccnc2ccc(C(C)(C)C)cc12" . Its measured %Inh is 18%

Form: compound = "O=C(Nc1n[nH]c2nc(-c3ccccc3O)ccc12)C1CC1" ; %Inh = 0%

Lab book: %Inh of "CCNC(=O)/C=C/c1n[nH]c2cc(Sc3ccccc3C(=O)NC)ccc12" noted as 3%

// field: %Inh; key: "O=C(O)C(F)(F)F.O=c1[nH]ccc2nc(N[C@@H]3CCNC3)nc(Nc3cc(Cl)cc(Cl)c3)c12" ; value = 0%

"O=C1NC(=O)C(c2ccccc2Cl)=C1Nc1cccc(Cl)c1" has a reported %Inh of 0%

%Inh for Cl.Cl.NCC(NC(=O)c1cc(-c2cccnc2)c(-c2ccnc3[nH]ccc23)s1)c1ccccc1 (stereo not shown) is 86%

Lookup result for "COc1cccc2c(-c3ccncc3)c(-c3ccc(F)cc3)nn12" ; measured %Inh: 5%

Kindly note the recorded %Inh for "COc1cc(Nc2ccnc3cc(-c4ccncc4)ccc23)cc(OC)c1OC.Cl" , which is 0%

In plain terms, "COC(=O)Nc1nc2ccc(Oc3ccc(CC(=O)Nc4cc(C(F)(F)F)ccc4F)cc3)cc2[nH]1" has a documented %Inh of 0%

Just so you know, measured %Inh for "CC(C)(C)c1ccc(C(=O)Nc2cn3cc(-n4ccnc4)ccc3n2)cc1" came out at 0%

Item: "Cc1ccc(Nc2ccnc(Nc3ccc(C)c(F)c3)n2)cc1O.Cl" | %Inh: 0%

%Inh reading for "Cn1cc(-c2cnc(N)c3c(-c4ccc5c(c4)CCN5C(=O)Cc4ccccc4)csc23)cn1" : 8%

%Inh reported for this compound "COc1cccc(-c2nc(-c3ccccc3)[nH]c2-c2ccncc2)c1" : 0%

%Inh measured on "CS(=O)(=O)c1cccc(CNc2nc(Nc3ccc4c(c3)CCC(=O)N4)ncc2C(F)(F)F)c1" = 0%

Briefly, %Inh measured for "Cl.O=C(Nc1ccc(Oc2ccc3[nH]c(NC(=O)c4ccco4)nc3c2)cc1)Nc1cc(C(F)(F)F)ccc1F" : 0%

// %Inh lookup, compound = "CC(C)c1nc(-c2ccc(F)c(NS(=O)(=O)c3c(F)cccc3F)c2)c(-c2ccnc(Nc3ccc(N4CCOCC4)nc3)n2)s1" , result: 2%

Sample "COc1cccc(CC(=O)N2CCc3cc(-c4cn(C)c5ncnc(N)c45)ccc32)c1" ; %Inh observed: 27%

The reported %Inh of the compound "Nc1ncc(-c2cn[nH]c2)c2scc(-c3ccc4c(c3)CCN4C(=O)Cc3ccccc3)c12" was 0%

For reference, reported %Inh for "CC(=O)Nc1cn2nc(Oc3cccc(NC(=O)c4cccc(C(F)(F)F)c4)c3)ccc2n1" stands at 16%

---

- System: YES
- Construct: gene YES1
- experimental.context: concentration: 1 μM, replicates: in singlicate; n = 1
Assignment: determine reported %Inh for the given compounds.
Report the value in % with no unit label.

Input "N#CC1(c2cccc(C(=O)Nc3cccc(Oc4ccc5nc(NC(=O)C6CC6)sc5n4)c3)c2)CC1" . Output %Inh: 98.7

Reported %Inh for Cc1ccc(NC(=O)c2cccc(N3CCCCC3)c2)cc1-c1ccc(C(=O)NCC2CC2)cc1 [GSK1917008] was 10

Form: compound = Cc1ccc(-c2ccc3occ(-c4ccc(S(C)=O)cc4)c3c2)nn1 (stereo not shown) ; %Inh = 0

The value of %Inh measured for the compound Cc1ccc(C)c(NC(=O)Nc2ccc(C)c(-c3ccc(C(=O)Nc4ccncc4)cc3)c2)c1 [GSK1398473] turned out to be 29

---

- System: CDK4-cyclinD3
- experimental.context: concentration: 1 μM, replicates: in singlicate; n = 1
assay.readout: %Inh (%)
Give the number; % is assumed, so skip it.

Recorded %Inh for "O=C(Nc1n[nH]c2nc(-c3ccccc3)ccc12)C1CC1" on CDK4-cyclinD3 was 0

For "CSc1ccc(NC2=C(c3ccc(Cl)cc3)C(=O)NC2=O)cc1" on CDK4-cyclinD3, measured %Inh was 0

Tested system CDK4-cyclinD3; %Inh recorded for "CN(c1ccc(F)c(NC(=O)c2cccc(OC(C)(C)C#N)c2Cl)c1)c1ccc2nc(NC(=O)C3CC3)sc2n1" was 7

Observed %Inh, CDK4-cyclinD3, COc1cc(Nc2nccc(N3CCC(NC(=O)Nc4ccc5c(c4)OCO5)C3)n2)cc(OC)c1OC (centres unmarked) : 14

// %Inh (CDK4-cyclinD3) for "Fc1cc(Cl)ccc1Nc1ccnc2cc(-c3ccc(CN4CCSCC4)o3)ccc12" = 0

Summary line: "O=C1NC(=O)C(c2ccccc2Cl)=C1Nc1cccc(Cl)c1" , CDK4-cyclinD3, reported %Inh = 33

"CN(C)CCOc1ccc(-c2cc(-c3ccc(Cl)c(O)c3)c(-c3ccncc3)[nH]2)cc1.Cl.Cl" tested on CDK4-cyclinD3 gave %Inh: 15

Bench note, CDK4-cyclinD3: entry "Cc1ccccc1CC(=O)N1CCc2cc(-c3cn(C)c4ncnc(N)c34)ccc21" , its %Inh = 0
